Measured values drawn from patent US9815851B2 for this set.

molecular target: UniProt P51449; experiment: RORγ Gal4 Reporter Gene Assay in 293T cells (firefly and renilla luciferase); format: cell-based, human; conditions: third value of the cell; Gal4 reporter gene assay in 293T cells, renilla normalised luciferase
Kindly state pIC50 (REN) for each of the entries shown.
Numbers only.

// known answers, use as guide
* Cc1c(C(=O)N[C@H]2C[C@H](C(=O)O)C2)cc(-c2cc(Cl)cc(C(=O)NC(C)(C)C)c2)n1CC1CCCCC1 [17/298] | 6.0
* Cc1c(C(=O)NC2CCOCC2)cc(-c2cc(F)c(NS(=O)(=O)C(C)(C)C)c(C(F)(F)F)c2)n1CC1CCCCC1 [17/248] | 7.3

Next, consider the following compound.
Consider the compound shown here: Cc1c(C(=O)NCC2(C)COC2)cc(-c2cc(S(=O)(=O)N3CCCCC3)c3ccccn23)n1CC1CCCCC1 [Example 8] What is its recorded pIC50 (REN)?
7.2
